Values compiled from patent US11548875B2.

molecular target: ALDH1A1 (Homo sapiens); experiment: Cell-based enzyme assay, retinoic acid production in ALDH1A1/H1299 cells
Sequence (P00352 whole entry): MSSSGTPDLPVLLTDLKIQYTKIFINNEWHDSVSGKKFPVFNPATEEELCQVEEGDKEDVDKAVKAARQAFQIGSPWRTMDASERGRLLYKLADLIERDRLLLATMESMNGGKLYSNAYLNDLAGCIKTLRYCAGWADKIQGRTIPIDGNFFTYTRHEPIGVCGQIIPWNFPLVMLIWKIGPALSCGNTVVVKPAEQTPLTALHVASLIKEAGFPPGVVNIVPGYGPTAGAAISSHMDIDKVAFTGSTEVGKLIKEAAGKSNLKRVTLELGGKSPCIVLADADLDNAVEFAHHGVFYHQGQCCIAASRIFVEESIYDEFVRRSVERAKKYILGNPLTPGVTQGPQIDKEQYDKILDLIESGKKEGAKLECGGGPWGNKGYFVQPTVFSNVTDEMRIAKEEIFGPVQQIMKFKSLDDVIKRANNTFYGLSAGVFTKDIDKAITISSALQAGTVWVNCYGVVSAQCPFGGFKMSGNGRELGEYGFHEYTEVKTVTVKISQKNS
MEASURED QUANTITY: EC50 (µM)

COMPOUND: CC(=O)n1cccc1C(=O)N1CCN(c2ccc([N+](=O)[O-])c(N3CCCC3)c2)CC1 [Compound 347]
MEASURED QUANTITY: EC50
RECORDED MEASUREMENT: 0.33

(A) Cn1cccc1C(=O)N1CCN(c2ccc(NC(=O)CCl)c(N3CCCC3)c2)CC1 [Compound 372]
(B) Cn1cccc1C(=O)N1CCN(c2ccc(N)c(N3CCCCCC3)c2)CC1 [Compound 379]
(C) Cn1cccc1C(=O)N1CCN(c2ccc(NC(=O)C(Cl)Cl)c(N3CCCC3)c2)CC1 [Compound 367]
(D) Cn1cccc1C(=O)N1CCN(c2ccc(-c3ccc([N+](=O)[O-])cc3)c(N3CCCCC3)c2)CC1 [Compound 373]
Sort these compounds on EC50 so the largest reading comes first. Show the ranking through the labels, in the order asked for.
B, D, C, A

* * *

Target: ALDH1A1 (Homo sapiens)
Test: Cell-based enzyme assay, retinoic acid production in ALDH1A1/H1299 cells
Protocol: ALDH1A1 cDNA clone was purchased transfection-ready, and ALDH1A2 full-length cDNA was subcloned into pcDNA3, a mammalian expression vector. ALDH1A1 and ALDH1A2 were transfected into H1299 cells (CRL5803, ATCC) using Lipofectamine 3000 (Invitrogen) following the manufacturer's instructions. Stably transfected cells were selected with G418 (1.2 mg/ml) and referred to as ALDH1A1/H1299 and ALDH1A2/H1299. For the cell-based enzyme assays, […]
Structures can show the parent of a compound that is named as a salt.
MEASURED QUANTITY: EC50 (µM)

COMPOUND: O=C(c1ccccc1)N1CCN(c2ccc([N+](=O)[O-])c(N3CCCC3)c2)CC1 [Compound 339]
EC50, µM: 0.333

(P) O=C(c1ccc(Cl)cc1)N1CCN(c2ccc([N+](=O)[O-])c(N3CCCC3)c2)CC1 [Compound 342]
(Q) Nc1ccsc1C(=O)N1CCN(c2ccc([N+](=O)[O-])c(N3CCCC3)c2)CC1 [Compound 331, hydrochloride]
(R) Cn1cccc1C(=O)N1CCN(c2ccc(NC(=O)C(Cl)Cl)c(N3CCCCCC3)c2)CC1 [Compound 381]
Sort these compounds on EC50 so the largest reading comes first. Show the ranking through the labels, in the order asked for.
P, Q, R

* * *

Target: ALDH1A2 (Homo sapiens)
Sequence (O94788 1-518): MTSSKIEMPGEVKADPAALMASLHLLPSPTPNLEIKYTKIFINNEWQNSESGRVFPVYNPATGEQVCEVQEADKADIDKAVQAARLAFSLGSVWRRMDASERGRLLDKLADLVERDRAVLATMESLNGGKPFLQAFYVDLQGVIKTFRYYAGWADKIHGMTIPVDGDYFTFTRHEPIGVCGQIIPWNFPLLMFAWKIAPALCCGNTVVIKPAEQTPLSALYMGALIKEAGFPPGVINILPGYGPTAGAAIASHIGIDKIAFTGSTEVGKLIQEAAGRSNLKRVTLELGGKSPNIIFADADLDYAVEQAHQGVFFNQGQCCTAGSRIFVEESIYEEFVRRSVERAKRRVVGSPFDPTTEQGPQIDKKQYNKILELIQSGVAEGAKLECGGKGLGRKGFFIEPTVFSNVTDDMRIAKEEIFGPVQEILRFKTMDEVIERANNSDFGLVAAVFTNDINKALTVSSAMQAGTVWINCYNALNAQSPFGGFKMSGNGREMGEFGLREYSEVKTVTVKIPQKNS
Experiment: Inhibitor screening using purified enzymes: ALDH1A2 activity, retinoic acid production by HPLC (5 uM initial screen, then IC50)
Assay type: biochemical
Set-up: histidine-tag (C); made in house; host or cells: bacterial expression (pET28 vector, IPTG induction)
Conditions: purified enzyme
MEASURED QUANTITY: IC50 (µM)

MOL: O=Cc1cn(-c2ccccc2)nc1-c1ccc(O)cc1
ENDPOINT UNIT: µM
IC50: 1.73

(I) Cc1ccccc1-c1nn(-c2ccccc2)cc1C(=O)Nc1cccc(F)c1
(II) CS(=O)(=O)c1ccc(-c2nn(-c3cccc(C#N)c3)cc2C(=O)Nc2cccc(F)c2)cc1
(III) Cn1cccc1C(=O)N1CCN(c2ccc(NC(=O)C(Cl)Cl)c(N3CCCCC3)c2)CC1
Sort these molecules on IC50 so the largest reading comes first. Show the ranking through the labels, in the order asked for.
III, I, II
(III: 8.7 µM, I: 2.15 µM, II: 0.84 µM)
